Source: paper PMC4183655

# system: CBP (Homo sapiens)
# measurement_description: Isothermal titration calorimetry (ITC)
# assay_conditions: ITC Ka, CBP
Kd under 30 nM gets label 1, anything at or over 30 nM gets label 0.

[[record]]
compound = "Cc1ccc(CCc2nc3cc(-c4c(C)noc4C)ccc3n2CCN2CCOCC2)cc1 [Compound 25]"
system = "CBP (Homo sapiens)"
class_label = "label 0"

[[record]]
compound = "Cc1noc(C)c1-c1ccc(NC[C@H](C)N2CCOCC2)c([N+](=O)[O-])c1 [Compound 57]"
system = "CBP (Homo sapiens)"
class_label = "label 0"

[[record]]
compound = "COc1ccc(CCc2nc3cc(-c4c(C)noc4C)ccc3n2CCN2CCOCC2)cc1Cl [Compound 32]"
system = "CBP (Homo sapiens)"
class_label = "label 1"


Problem: Dear reviewer, please state whether Cc1noc(C)c1-c1ccc2c(c1)nc(CCn1ccc3ccccc31)n2C[C@@H](C)N1CCOCC1 [Compound 60] has Kd strictly beneath 30 nM.
Solution: label 1

---

Reported values of ΔTm at 10 µM for individual entries
# system: CBP (Homo sapiens, UniProt Q92793)
# Sequence (Q92793 1085-1192 limits assumed): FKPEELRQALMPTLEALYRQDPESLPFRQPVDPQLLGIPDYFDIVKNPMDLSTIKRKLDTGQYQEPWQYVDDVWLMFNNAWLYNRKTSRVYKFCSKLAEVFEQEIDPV
# measurement_description: DSF (ΔTm) thermal stability assay
# Format: binding
# assay_conditions: compound concentration 10 μM; mean ± SEM (number of measurements)
I only need the number, in °C, no unit after it.

Record excerpt, results attached:
[[record]]
compound = "Cc1noc(C)c1-c1ccc2c(c1)nc(CC(C)(C)C)n2CCN(C)C [Compound 8]"
units = "°C"
quantitative_readout = 4.5

[[record]]
compound = "Cc1noc(C)c1-c1ccc2c(c1)nc(CCc1ccccc1)n2CCN1CCCC1 [Compound 15]"
units = "°C"
quantitative_readout = 5.4

[[record]]
compound = "COc1ccc(CCc2nc3cc(-c4c(C)noc4C)ccc3n2CCN2CCOCC2)cc1Cl [Compound 32]"
units = "°C"
quantitative_readout = 9

[[record]]
compound = "Cc1noc(C)c1-c1ccc2c(c1)nc(CCc1ccccc1)n2CCN1CCSCC1 [Compound 20]"
units = "°C"
quantitative_readout = 6.6

[[record]]
compound = "COc1ccc(CCc2nc3cc(-c4c(C)noc4C)ccc3n2CCN2CCOCC2)cc1F [Compound 33]"
units = "°C"
quantitative_readout = 9.6


Proceeding to the next compound to report its ΔTm at 10 µM.
Problem: Give ΔTm at 10 µM only, for Cc1noc(C)c1-c1ccc2c(c1)nc(CCc1ccccc1)n2CCN1CCCCC1 [Compound 16] , using CBP (Homo sapiens, UniProt Q92793) data.
Solution: 6.5
